Assign logD to each entry below.
Assay: physchem
Conditions: octanol/water
Answers are plain numbers.

CN(Cc1ccc(-c2ccccc2)cc1)C(=O)N1CCC[C@H]1CN1CCCC1    2.6
Cn1nccc1-c1ccc(OCCCN2CCCCC2)cc1    1.8
C[C@@H]1CCCN1CCc1ccc(-c2ccc(S(=O)(=O)NCC3CC3)cc2)cc1    2.8
Cc1nc(-c2cccs2)sc1-c1ccc2cc(CCN3CCC[C@H]3C)ccc2n1    4.6
C[C@@H]1CCCN1CCc1ccc2nc(-c3ccc(Cl)nc3)ccc2c1    3.4

Give logD for all compounds that follow.
1. N#Cc1cncc(-c2cnc3nc(N4CCC(N5CCCCC5)CC4)sc3c2)c1
2. C[C@@H]1CCCN1CCc1ccc2nc(-c3ccncc3)ccc2c1

Result:
[0.8, 2.5]

Could you tell me logD for each of these compounds? They are listed below.
1. Cc1nn(C)cc1-c1ccc2cc(CCN3CCC[C@H]3C)ccc2n1
2. Cc1nc2c(F)cccc2c(=O)n1-c1ccc(OCCCN2CCCC2)cc1
3. CC(C)n1c(-c2ccc(OCCCN3CCCCC3)cc2)nc2ccccc2c1=O

Result:
[2.6, 1.9, 3]

// each listed compound needs a value for logD
1. Cc1nc2cccc(C(F)(F)F)c2c(=O)n1-c1ccc(OCCCN2CCCC2)cc1
2. Cc1cccc2nc(C)n(-c3ccc(OCCCN4CCCC4)cc3)c(=O)c12

Result:
1: 2.6; 2: 2.2

Please report logD for every entry that follows.
1. Cc1cc(C(F)(F)F)cc(-n2ncc(-c3ccc4cc(CCN5CCC[C@H]5C)ccc4n3)c2C)n1
2. O=C(C1CC(Oc2cccc(F)c2)CN1)N1CCCN(C2CCC2)CC1 (stereo unspecified)
3. COc1ccc2c(c1)OC(c1ccc(OCCCN3CCCC3)cc1)C(C)S2(=O)=O (stereo unspecified)
4. C[C@@H]1CCCN1CCc1ccc2nc(C3CC3)ccc2c1
5. C[C@@H]1CCCN1CCc1ccc2nc(-c3ccc(-n4ccc(=O)cc4)cc3)ccc2c1
6. Cn1c(-c2ccc(OC3CCN(C4CCCC4)CC3)cc2)nc2ccccc2c1=O
7. COc1cccc2nc(C)n(-c3ccc(OCCCN4CCCC4)cc3)c(=O)c12

Result:
1: 4.6; 2: 0.2; 3: 2.2; 4: 2.7; 5: 3.4; 6: 2.6; 7: 1.7

----------
Record form. Attribute: logD. Fill in for each entry.
Assay: physchem
Conditions: octanol/water
Numbers only.

Some compounds with known logD results, for comparison:
Cc1nc(-c2cnccn2)sc1-c1ccc2cc(CCN3CCC[C@H]3C)ccc2n1    2.7
Cn1c(-c2ccc(OC3CCN(C4CCC4)CC3)cc2)nc2c(Cl)cccc2c1=O    2.8
Cn1c(-c2ccc(OCCCN3CCCC3)cc2)nc2ccccc2c1=O    1.8
COc1ccc(-c2cc3sc(N4CCC(N5CCCCC5)CC4)nc3cn2)cn1    1.6

Now consider a different compound.
Notebook: CC(C)N1CCN(C(=O)N2CC=C(c3ccccc3)CC2)CC1 , logD read as 1.4

----------
Please respond with reported logD for every item in the list.
Assay: physchem
Details: octanol/water

Solved entries:
C[C@@H]1CCCN1CCc1ccc2nc(-c3cnc(-c4ccccc4)s3)ccc2c1    4.3
N#Cc1ccc(OC2CNC(C(=O)N3CCCN(C4CCCC4)CC3)C2)cc1 (stereo not given)    0.6
COC(=O)c1cc(-c2ccc3cc(CCN4CCC[C@H]4C)ccc3n2)on1    2.7
COc1nccc2c(=O)n(C)c(-c3ccc(OC4CCN(C5CCC5)CC4)cc3)nc12    1.6
C[C@@H]1CCCN1CCc1ccc(-c2ccc(S(=O)(=O)N3CCC(O)C3)cc2)cc1 (stereo not given in full)    1.5

// input: 5 compounds below; output: logD for each
1. COc1ccc2c(c1)S(=O)(=O)C(C)C(c1ccc(OCCCN3CCCC3)cc1)O2 (stereo not given)
2. Cn1c(-c2ccc(OC3CCN(C4CCC4)CC3)cc2)nc2ccccc2c1=O
3. C[C@@H]1CCCN1CCc1ccc2nc(-c3cn[nH]c3)ccc2c1
4. c1cc(-c2ccc3c(c2)OCO3)ccc1OCCCN1CCCCC1
5. C[C@@H]1CCCN1CCc1ccc2nc(C3=NCCS3)ccc2c1

Result:
1. 2.2
2. 2.2
3. 2.1
4. 2.7
5. 2.7

----------
Test: physchem
Conditions: octanol/water
RESULT TYPE: logD
Numbers only.

CCOC(=O)c1ccc(-c2ccc(OCCCN3CCCCC3)cc2)cc1    3.1
COc1cccc2c1OC(c1ccc(OCCCN3CCCCC3)cc1)C(C)S2(=O)=O (centres undefined)    2.7
COc1cc2c(cc1OC)CN(C(=O)N1CCN(C(C)C)CC1)CC2    1
C[C@@H]1CCCN1CCc1ccc2nc(-c3nc4ccccc4s3)ccc2c1    4.1
C[C@@H]1CCCN1CCc1ccc2nc(-c3c(O)ccnc3C(F)(F)F)ccc2c1    3.6
N#Cc1cc(-c2cnc3nc(N4CCC(N5CCCCC5)CC4)sc3c2)ccc1F    2.1
Cc1nc2ccc(F)cc2c(=O)n1-c1ccc(OCCCN2CCCC2)cc1    1.9
CC(C)N1CCN(C(=O)N2CCC(C(=O)OC(C)(C)C)CC2)CC1    0.6

Consider the following items and state reported logD for each.
1. COc1ccc2nc(C)n(-c3ccc(OCCCN4CCCC4)cc3)c(=O)c2c1
2. Cc1onc(-c2ccccc2)c1-c1ccc2cc(CCN3CCC[C@H]3C)ccc2n1
3. C[C@@H]1CCCN1CCc1ccc2ncccc2c1
4. Cc1nc2c(C(F)(F)F)cccc2c(=O)n1-c1ccc(OCCCN2CCCC2)cc1
5. C[C@@H]1CCCN1CCc1ccc2nc(-c3cnc4c(c3)OCO4)ccc2c1
6. C[C@@H]1CCCN1CCc1ccc2nc(-c3ccc4c(c3)COCO4)ccc2c1

Result:
1. 1.7
2. 4.2
3. 1.7
4. 2.6
5. 2.8
6. 3.2

----------
Can you tell me logD for the items I'm about to list?
Assay: physchem
Details: octanol/water
Numbers only.

See these solved cases before continuing.
C[C@@H]1CCCN1CCc1ccc(-c2ccc(S(=O)(=O)NCc3ccccc3)cc2)cc1    3.6
COC(=O)c1c(C)noc1-c1ccc2cc(CCN3CCC[C@H]3C)ccc2n1    2.5
Cc1nc(-c2ccncc2)sc1-c1ccc2cc(CCN3CCC[C@H]3C)ccc2n1    3.5

Provide the reported logD of each entry below, same order.
1. C[C@@H]1CCCN1CCc1ccc2nc(-c3ccc(C#N)s3)ccc2c1
2. Cc1cc(-c2ccc3cc(CCN4CCC[C@H]4C)ccc3n2)nc(-c2ccccc2)n1
3. O=c1ccc(-c2cnc3nc(N4CCC(N5CCCCC5)CC4)sc3c2)c[nH]1
4. C1=C(c2ccc(OCCCN3CCCCC3)cc2)CCC1

Result:
3.8
4.2
1.2
2.9

Taken from ChEMBL document CHEMBL1821550.
